Target: T1, human TNFR2 on the surface of CHO-TNFR2 cells (human, UniProt P20333 23-461)
T1 construct: whole, on cells
T1 sequence (looked up): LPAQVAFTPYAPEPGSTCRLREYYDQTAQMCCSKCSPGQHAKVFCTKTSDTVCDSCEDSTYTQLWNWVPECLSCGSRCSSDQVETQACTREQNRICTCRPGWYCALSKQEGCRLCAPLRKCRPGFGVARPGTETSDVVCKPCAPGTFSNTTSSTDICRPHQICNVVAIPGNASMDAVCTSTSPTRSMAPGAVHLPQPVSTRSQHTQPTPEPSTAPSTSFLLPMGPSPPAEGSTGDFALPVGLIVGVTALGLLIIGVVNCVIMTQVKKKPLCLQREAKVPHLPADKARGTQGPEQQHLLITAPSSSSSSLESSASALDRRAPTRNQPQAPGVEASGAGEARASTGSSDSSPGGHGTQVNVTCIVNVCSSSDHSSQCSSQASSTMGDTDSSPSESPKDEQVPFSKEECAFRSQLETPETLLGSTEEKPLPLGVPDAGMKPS
Assay: flow cytometry on CHO-TNFR2 cells
// reported EC50 per item
assay_readout: EC50 (ng/mL)

binder	unit_name	test_value
224-Hu2 (antibody, V domains shown, Humanized form of #224; also called VH9 + VL7) VH: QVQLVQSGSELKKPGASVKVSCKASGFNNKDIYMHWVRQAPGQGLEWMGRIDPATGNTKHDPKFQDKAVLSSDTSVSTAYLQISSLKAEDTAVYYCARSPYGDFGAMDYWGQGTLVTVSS VL: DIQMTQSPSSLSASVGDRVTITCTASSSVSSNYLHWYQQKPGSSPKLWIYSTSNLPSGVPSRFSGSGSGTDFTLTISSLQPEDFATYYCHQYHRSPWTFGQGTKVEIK	ng/mL	0.03
224-Hu7 (antibody, V domains shown, Humanized form of #224; also called VH9 + VL10) VH: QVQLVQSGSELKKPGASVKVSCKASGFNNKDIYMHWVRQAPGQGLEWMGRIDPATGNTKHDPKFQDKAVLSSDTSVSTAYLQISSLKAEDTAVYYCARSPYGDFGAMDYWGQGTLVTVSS VL: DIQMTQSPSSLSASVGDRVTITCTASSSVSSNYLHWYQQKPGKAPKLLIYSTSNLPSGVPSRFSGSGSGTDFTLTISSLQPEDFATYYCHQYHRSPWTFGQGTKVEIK	ng/mL	0.03
001-Hu3 (antibody, V domains shown, Humanized form of #001; also called VH1 + VL3) VH: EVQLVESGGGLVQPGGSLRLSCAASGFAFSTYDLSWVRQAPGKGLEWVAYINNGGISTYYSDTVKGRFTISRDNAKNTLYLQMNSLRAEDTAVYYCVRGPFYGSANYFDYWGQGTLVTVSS VL: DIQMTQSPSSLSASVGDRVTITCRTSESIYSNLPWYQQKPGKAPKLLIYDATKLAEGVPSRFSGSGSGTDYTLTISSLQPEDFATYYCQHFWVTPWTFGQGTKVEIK	ng/mL	0.035
224-Hu5 (antibody, V domains shown, Humanized form of #224; also called VH9 + VL9) VH: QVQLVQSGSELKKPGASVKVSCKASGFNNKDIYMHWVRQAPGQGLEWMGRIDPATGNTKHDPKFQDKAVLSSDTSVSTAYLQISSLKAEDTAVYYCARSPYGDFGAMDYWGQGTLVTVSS VL: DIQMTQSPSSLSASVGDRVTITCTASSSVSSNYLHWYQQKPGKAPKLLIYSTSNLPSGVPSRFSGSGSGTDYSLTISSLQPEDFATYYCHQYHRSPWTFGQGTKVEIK	ng/mL	0.04
001-Hu2 (antibody, V domains shown, Humanized form of #001; also called VH2 + VL2) VH: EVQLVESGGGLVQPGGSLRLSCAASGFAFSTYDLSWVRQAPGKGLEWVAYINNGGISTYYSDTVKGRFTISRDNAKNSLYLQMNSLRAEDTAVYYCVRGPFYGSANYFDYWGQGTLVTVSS VL: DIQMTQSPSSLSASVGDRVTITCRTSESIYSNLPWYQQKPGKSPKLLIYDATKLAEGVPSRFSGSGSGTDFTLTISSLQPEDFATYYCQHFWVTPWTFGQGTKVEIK	ng/mL	0.073
219-Hu4 (antibody, V domains shown, also called VH6 + VL5) VH: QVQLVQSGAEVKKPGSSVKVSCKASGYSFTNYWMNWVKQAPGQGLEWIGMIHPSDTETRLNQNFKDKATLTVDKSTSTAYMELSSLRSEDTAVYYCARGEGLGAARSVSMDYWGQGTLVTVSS VL: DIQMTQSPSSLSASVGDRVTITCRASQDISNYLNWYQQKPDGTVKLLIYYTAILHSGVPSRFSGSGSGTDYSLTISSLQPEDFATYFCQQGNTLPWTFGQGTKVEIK	ng/mL	0.018
219-Hu1 (antibody, V domains shown, also called VH3 + VL5) VH: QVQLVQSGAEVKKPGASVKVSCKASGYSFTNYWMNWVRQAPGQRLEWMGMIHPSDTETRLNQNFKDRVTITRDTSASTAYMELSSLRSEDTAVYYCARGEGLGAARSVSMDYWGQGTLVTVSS VL: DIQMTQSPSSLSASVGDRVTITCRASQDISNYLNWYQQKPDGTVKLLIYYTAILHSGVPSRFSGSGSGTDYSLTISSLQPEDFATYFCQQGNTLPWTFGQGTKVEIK	ng/mL	0.026
224-Hu3 (antibody, V domains shown, Humanized form of #224; also called VH9 + VL8) VH: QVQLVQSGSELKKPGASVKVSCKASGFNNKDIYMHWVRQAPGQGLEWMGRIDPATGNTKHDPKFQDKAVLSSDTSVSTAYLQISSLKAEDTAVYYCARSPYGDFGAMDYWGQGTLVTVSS VL: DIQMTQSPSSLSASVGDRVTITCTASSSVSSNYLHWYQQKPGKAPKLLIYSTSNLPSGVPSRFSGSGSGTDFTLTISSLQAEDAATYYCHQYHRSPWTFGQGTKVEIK	ng/mL	0.03
219-Hu2 (antibody, V domains shown, also called VH4 + VL5) VH: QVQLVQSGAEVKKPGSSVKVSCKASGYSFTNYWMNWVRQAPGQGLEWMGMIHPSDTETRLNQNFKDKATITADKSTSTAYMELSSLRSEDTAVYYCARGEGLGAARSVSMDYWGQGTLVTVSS VL: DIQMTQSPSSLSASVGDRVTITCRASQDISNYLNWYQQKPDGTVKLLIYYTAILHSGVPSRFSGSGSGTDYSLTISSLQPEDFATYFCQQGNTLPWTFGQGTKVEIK	ng/mL	0.027
